Molecular target: T1, human angiotensin 2 type 1 receptor (human, UniProt P30556 1-359)
T1 sequence (looked up): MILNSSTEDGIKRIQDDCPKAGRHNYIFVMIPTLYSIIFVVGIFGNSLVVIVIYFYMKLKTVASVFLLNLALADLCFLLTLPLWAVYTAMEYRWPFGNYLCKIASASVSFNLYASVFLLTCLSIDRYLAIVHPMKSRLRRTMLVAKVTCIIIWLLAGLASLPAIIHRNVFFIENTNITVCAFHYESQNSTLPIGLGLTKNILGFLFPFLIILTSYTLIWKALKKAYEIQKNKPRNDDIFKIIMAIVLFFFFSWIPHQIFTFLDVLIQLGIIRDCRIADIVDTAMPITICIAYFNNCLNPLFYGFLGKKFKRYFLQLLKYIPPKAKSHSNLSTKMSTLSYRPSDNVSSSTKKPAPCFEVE
Assay: cell-based or functional assay
Non-standard residues stand in square brackets, D forms with d. No end group written: not given here. Sar = CNCC(=O)O
VALUE KIND: b-arrestin2 EC50 (nM)

Here is how some binders turned out for b-arrestin2 EC50.
BINDER	VALUE KIND	REPORTED VALUE
ARVYIHPA (NM-D-Ala (N-methyl-D-alanine) at 1) [SEQ ID NO: 47]	b-arrestin2 EC50	4800
[Sar]RVYIKP[dA]-OH (N-terminus assumed; SMILES CC[C@H](C)[C@H](NC(=O)[C@H](Cc1ccc(O)cc1)NC(=O)[C@@H](NC(=O)[C@H](CCCNC(=N)N)NC(=O)CNC)C(C)C)C(=O)N[C@@H](CCCCN)C(=O)N1CCC[C@H]1C(=O)N[C@H](C)C(=O)O) [SEQ ID NO: 50]	b-arrestin2 EC50	680
[Sar]RVYHHP-NH2 (N-terminus assumed; SMILES CNCC(=O)N[C@@H](CCCNC(=N)N)C(=O)N[C@H](C(=O)N[C@@H](Cc1ccc(O)cc1)C(=O)N[C@@H](Cc1c[nH]cn1)C(=O)N[C@@H](Cc1c[nH]cn1)C(=O)N1CCC[C@H]1C(N)=O)C(C)C) [SEQ ID NO: 42]	b-arrestin2 EC50	630

P = XRVYVHP (Sar (sarcosine) at 1) [SEQ ID NO: 54]
Q = XRVYYHP (Sar (sarcosine) at 1) [SEQ ID NO: 52]
## Input Param pair: P , Q . Output: the one whose b-arrestin2 EC50 is numerically greater. The response must carry the label of the picked entry.
## Output Q
(Q: 1400 nM, P: 42 nM)

Where these numbers come from: patent US20100184701A1
